- System: Septoria tritici—SEPTTR
- ASSAY REMARKS: Leaf Blotch of Wheat, in vivo whole plant, 24 Hour Protectant
- SETTINGS: Zymoseptoria tritici, 24 h, wheat plants sprayed at 100 ppm, inoculated after 24 hours; control of fungal infection vs untreated plants; read-out: SEPTTR in vivo 1 Day Protectant
PARAMETER: pest or weed control at 100 ppm

Worked examples follow.
Ask | What value of pest or weed control at 100 ppm has been reported for the following molecule? "COc1ccnc(C(=O)N[C@@H]2C[C@@H](C(F)(F)F)C[C@@H](C(F)(F)F)C2)c1OC(C)=O"
Reply | 25 to 74%

Ask | Any idea what pest or weed control at 100 ppm was measured for "CC1(C)CC(NC(=O)c2cc(O)cnc2O)CC(C)(C)C1" ?
Reply | 25 to 74%

Ask | Endpoint output: pest or weed control at 100 ppm of "Cc1nc(O)c(C(=O)N[C@H]2COC(=O)[C@H](Cc3ccccc3)[C@@H](OC(=O)C(C)C)[C@H](C)OC2=O)cc1Cl" . Value?
Reply | 25 to 74%

Ask | Requested read-out: pest or weed control at 100 ppm. Entry: "COc1ccc(CNC(=O)c2nc(Br)ccc2O)cc1"
Reply | 25 to 74%

Ask | Tell me the measured pest or weed control at 100 ppm of "COc1ccnc(C(=O)Nc2ccc(Oc3ccc(C(F)(F)F)cn3)cc2)c1O" , please.
Reply | 25 to 74%

Ask | Reported pest or weed control at 100 ppm, molecule "Cc1ccnc(C(=O)NC2CC(C)(C)CC(C)(C)C2)c1OC(=O)C(C)C" : ____
Reply | < 25%

---
Ask | Please look up its pest or weed control at 100 ppm: "O=C(Nc1cccc(Oc2ccccc2)c1)c1cccnc1O"
Reply | < 25%

Ask | So what's the measured pest or weed control at 100 ppm for this one? "CC(C)C(=O)O[C@H]1[C@H](C)OC(=O)[C@@H](NC(=O)c2cnn(C)c2O)COC(=O)[C@@H]1Cc1ccccc1"
Reply | < 25%

Ask | Dear colleague, I am looking for the recorded pest or weed control at 100 ppm of the following molecule: COC(=O)C(COC(=O)C(COC(=O)C(C)C)Cc1ccccc1)NC(=O)c1nccc(OC)c1OC(C)=O (stereo not shown)
Reply | 25 to 74%

Ask | For "Cc1ccc(C(=O)N[C@H]2COC(=O)[C@H](Cc3ccccc3)[C@@H](OC(=O)C(C)C)[C@H](C)OC2=O)c(O)n1" , what is its reported pest or weed control at 100 ppm?
Reply | 25 to 74%

Ask | Query (molecule): "CC(C)C(=O)O[C@H]1[C@H](C)OC(=O)[C@@H](NC(=O)c2ccncc2O)COC(=O)[C@@H]1Cc1ccccc1" ; field requested: pest or weed control at 100 ppm
Reply | < 25%

Ask | Which pest or weed control at 100 ppm value is on record for "Cc1cc(C)c(C(=O)NC2CC(C)(C)CC(C)(C)C2)c(O)n1" ?
Reply | 25 to 74%

Ask | What value of pest or weed control at 100 ppm has been recorded for this entry: "CSc1nnc(C(=O)Nc2ccc(Oc3cccc(C(F)(F)F)c3)cc2)c(O)n1"
Reply | 25 to 74%

Ask | Item under review: "COc1cccc(CNC(=O)c2cccnc2O)c1OC" . Reported pest or weed control at 100 ppm?
Reply | < 25%

Ask | Give its pest or weed control at 100 ppm value. Item: CC(NC(=O)c1ccncc1O)c1ccc(C(F)(F)F)cc1 (stereo not shown)
Reply | < 25%

Ask | So what's the measured pest or weed control at 100 ppm for this one? "COc1ccnc(C(=O)Nc2ccc(Oc3ccc(C(F)(F)F)cc3)cn2)c1O"
Reply | 25 to 74%

====

- Test system: Rhizoctonia solani (RHIZSO)
- ASSAY REMARKS: microbe, parasite or virus in culture
- Type: cell-based
- SETTINGS: Rhizoctonia solani, read-out: RHIZSO in vitro Growth Inhibition
PARAMETER: inhibition at 25 ppm

Ask | Using the record for COc1ccc(Oc2ccc(NC(=O)c3nccc(OC)c3O)cc2)cc1 [Compound 435] , report its inhibition at 25 ppm.
Reply | < 80%

Ask | If you can, please state the reported inhibition at 25 ppm value of O=C(Nc1ccc(Oc2cccc(C(F)(F)F)c2)cc1)c1cscc1O [Compound 555] .
Reply | > 80%

Ask | If you can, please state the reported inhibition at 25 ppm value of O=C(Nc1nccs1)c1ncccc1O [Compound 235] .
Reply | > 80%

Ask | What inhibition at 25 ppm value was documented for this compound, COc1ccnc(C(=O)Nc2cccc(Oc3ccc(Cl)cc3)c2)c1O [Compound 440] ?
Reply | < 80%

Ask | Which measured inhibition at 25 ppm value corresponds to COc1ccnc(C(=O)Nc2ccc(OC3CC(C)(C)CC(C)(C)C3)cc2)c1O [Compound 458] ?
Reply | < 80%

More entries:
Ask | Look at this compound and give its reported inhibition at 25 ppm. COc1ccnc(C(=O)NC2CC(C)(C)CC(C)(C(=O)OCCC(C)(C)C)C2)c1O (centres unmarked) [Compound 261]
Reply | < 80%

Ask | # inhibition at 25 ppm lookup, item O=C(NCCc1ccc(Cl)cc1)c1ncccc1O [Compound 233]
Reply | < 80%

====

- Test system: Septoria tritici—SEPTTR
- ASSAY REMARKS: Leaf Blotch of Wheat, in vivo whole plant, 24 Hour Protectant
- SETTINGS: Zymoseptoria tritici, 24 h, wheat plants sprayed at 100 ppm, inoculated after 24 hours; control of fungal infection vs untreated plants; read-out: SEPTTR in vivo 1 Day Protectant
PARAMETER: pest or weed control at 100 ppm

Ask | Given the entry CC(NC(=O)c1nc(Br)ccc1O)c1ccc(Cl)cc1 (stereo not shown) , report its measured pest or weed control at 100 ppm.
Reply | < 25%

Ask | Entry "COc1ccnc(C(=O)N[C@H]2C[C@@H](C(F)(F)F)C[C@@H](C(F)(F)F)C2)c1OC(C)=O" has what pest or weed control at 100 ppm?
Reply | 25 to 74%

Ask | # input molecule: "CC(C)C(=O)O[C@H]1[C@H](C)OC(=O)[C@@H](NC(=O)c2cc(O)cnc2O)COC(=O)[C@@H]1Cc1ccccc1" ; wanted: its pest or weed control at 100 ppm
Reply | 25 to 74%

Ask | pest or weed control at 100 ppm for "COc1nc(O)c(C(=O)N[C@H]2COC(=O)[C@H](Cc3ccccc3)[C@@H](OC(=O)C(C)C)[C@H](C)OC2=O)nc1Cl" ?
Reply | 25 to 74%

Ask | Form field: reported pest or weed control at 100 ppm of "COc1ccnc(C(=O)Nc2ccc(Oc3ccnc(C(F)(F)F)c3)cc2)c1O"
Reply | 25 to 74%

Continuing:
Ask | Any idea what pest or weed control at 100 ppm was measured for "O=C(Nc1ccccc1Oc1ccccc1)c1cccnc1O" ?
Reply | < 25%

Ask | If you can, please state the reported pest or weed control at 100 ppm value of "CC1(C)CC(NC(=O)c2cscc2O)CC(C)(C)C1" .
Reply | 25 to 74%

Ask | Consider the molecule shown here: "O=C(NCc1sccc1Cl)c1nc(Br)ccc1O" What is its recorded pest or weed control at 100 ppm?
Reply | < 25%

Ask | GET /values?readout=pest or weed control at 100 ppm&item= "Cc1nc(O)c(C(=O)N[C@H]2COC(=O)[C@H](Cc3ccccc3)[C@@H](OC(=O)C(C)C)[C@H](C)OC2=O)nc1C"
Reply | 25 to 74%

Ask | Fill blank: measured pest or weed control at 100 ppm of the molecule "COc1ccnc(C(=O)Nc2ccc(Oc3cc(C(F)(F)F)nc(C(F)(F)F)c3)cc2)c1O" is ____.
Reply | 25 to 74%

Ask | Dear colleague, I am looking for the recorded pest or weed control at 100 ppm of the following molecule: "COc1cc(Br)nc(C(=O)N[C@H]2COC(=O)[C@H](Cc3ccccc3)[C@@H](OC(=O)C3CCCCC3)[C@H](C)OC2=O)c1O"
Reply | < 25%

Ask | Which pest or weed control at 100 ppm reading was recorded for the molecule "Cc1ccc(C(=O)NC2CC(C)(C)CC(C)(C)C2)c(O)n1" ?
Reply | 25 to 74%

Ask | Name the recorded pest or weed control at 100 ppm for "CC(C)C(=O)O[C@H]1[C@H](C)OC(=O)[C@@H](NC(=O)c2nccnc2O)COC(=O)[C@@H]1Cc1ccccc1" .
Reply | 25 to 74%

====

PARAMETER: melting point

Ask | Consider the compound CC1(C)CC(NC(=O)c2conc2O)CC(C)(C)C1 [Compound 560] and give its measured melting point.
Reply | 186 to 188 °C

Ask | Fill in: melting point of Cc1nc(O)c(C(=O)N[C@H]2COC(=O)[C@H](Cc3ccccc3)[C@@H](OC(=O)C(C)C)[C@H](C)OC2=O)cc1Cl [Compound 531] is ___
Reply | 103 to 108 °C

Ask | Record request: melting point value, item O=C(NCc1cccc(Cl)c1)c1ncccc1O [Compound 219]
Reply | 65 to 67 °C

Ask | What value of melting point has been recorded for this entry: COc1ccnc(C(=O)N[C@H]2COC(=O)[C@H](Cc3ccccc3)[C@@H](OCC(C)C)[C@H](C)OC2=O)c1O [Compound 384]
Reply | 172 to 174 °C

Ask | What measured melting point goes with COc1ccnc(C(=O)NC2CCN(Cc3cccc(C(F)(F)F)c3)CC2)c1O.O=C(O)/C=C\C(=O)O.O=C(O)/C=C\C(=O)O [Compound 307] ?
Reply | 168 to 170 °C

Ask | Tell me the measured melting point of CC(=O)OC1CCC(NC(=O)c2ncccc2O)CC1 (centres unmarked) [Compound 209] , please.
Reply | 123 to 126 °C

Ask | Please report the recorded melting point for COc1ccnc(C(=O)N[C@H]2COC(=O)[C@H](Cc3ccccc3)[C@@H](OC(=O)C(C)C)[C@H](C)OC2=O)c1OC(=O)C(C)C [Compound 602] .
Reply | 160 to 161 °C

Ask | What value of melting point has been reported for the following compound? COc1ccnc(C(=O)NC2CC(C)(C)C(OC(=O)c3ccccc3)C(C)(C)C2)c1O (centres unmarked) [Compound 268]
Reply | 175 to 200 °C

Source of measurements: patent US6706740B2
